# Tested on: OVCAR-8
# assayText: cells
# appliedConditions: Homo sapiens, OVCAR-8, 48 h, read-out: LC50
T if CC50 is below 40 µM. F if not; exact matches included in F.

For orientation, consider the following solved cases.
• CN(C)c1nc(NCCNS(=O)(=O)c2ccc(C(=O)/C=C/c3ccc(C(F)(F)F)cc3)cc2)nc(N2CCOCC2)n1 [23g] = F
• CN(C)c1nc(NCCNS(=O)(=O)c2ccc(C3=Nc4c(N)nc(N)nc4NC(c4ccc(Cl)cc4)C3)cc2)nc(Nc2ccc(F)cc2)n1 (stereo not shown) [31e] = F
• Nc1nc(N)c2c(n1)NC(c1ccc(F)cc1)CC(c1ccc(Nc3nc(NCCO)nc(Nc4ccc(Cl)cc4)n3)cc1)=N2 (stereo not shown) [33f] = T
• COc1cc(/C=C/C(=O)c2ccc(S(=O)(=O)NCCNc3nc(N(C)C)nc(N4CCOCC4)n3)cc2)cc(OC)c1OC [23d] = T
• COc1cc(/C=C/C(=O)c2cc(OC)c(OC)c(OC)c2)ccc1Oc1nc(NCCO)nc(N2CCOCC2)n1 [20d] = T
• CN(C)c1nc(NCCNS(=O)(=O)c2ccc(C3=Nc4c(N)nc(N)nc4NC(c4ccc(C(F)(F)F)cc4)C3)cc2)nc(N2CCOCC2)n1 (stereo not shown) [30g] = F

Consider the additional molecule presented here.
Req: Decide: CC50 of Cc1ccc(/C=C/C(=O)c2ccc(S(=O)(=O)NCCNc3nc(Nc4ccc(F)cc4)nc(N(C)C)n3)cc2)cc1 [24b] strictly below 40 µM?
Resp: F

Measured values drawn from paper PMC11012124 for this set.
